Values were extracted from the kinase profiling compilation of Christmann-Franck et al. (2016).

Molecular target: AURKB (human) (UniProt Q96GD4)
Sequence (Q96GD4 whole entry, looked up): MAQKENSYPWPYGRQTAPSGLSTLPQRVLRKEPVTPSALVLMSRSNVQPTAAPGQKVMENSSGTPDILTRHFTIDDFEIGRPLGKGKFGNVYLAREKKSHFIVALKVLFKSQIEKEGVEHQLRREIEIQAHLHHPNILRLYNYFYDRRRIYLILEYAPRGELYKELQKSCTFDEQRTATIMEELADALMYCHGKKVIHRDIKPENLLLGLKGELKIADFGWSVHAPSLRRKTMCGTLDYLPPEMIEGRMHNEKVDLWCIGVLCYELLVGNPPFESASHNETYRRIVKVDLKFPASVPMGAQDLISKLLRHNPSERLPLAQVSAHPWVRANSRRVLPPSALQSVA
Test: radiometric filter-binding kinase assay
Conditions: compound 10.0 µM
READOUT_LABEL: residual activity (%)

[a] FC(F)(F)c1ccc(-c2ccc(Oc3cncc4sc(-c5nn[nH]n5)cc34)cc2)cc1
[b] Cn1nc(Nc2ccc(F)cc2)c2c(N)ncnc21
a or b : whose residual activity is greater? Record your answer as the label of the chosen record. b
(b: 82%, a: 40%)

----------
Target: HIPK2 (human)
Assay: radiometric filter-binding kinase assay
Settings: compound 1.0 µM
READOUT_LABEL: residual activity (%)

Here's what some known entries look like.
{"COMPOUND": "Nc1cccc2c1CN(C1CCC(=O)NC1=O)C2=O (stereo not given)", "UNIT_NAME": "%", "residual activity": 107}
{"COMPOUND": "N#Cc1c(C2CCNCC2)cc(-c2c(O)cccc2OCC2CC2)nc1N", "UNIT_NAME": "%", "residual activity": 80}
{"COMPOUND": "CCCCCc1ccc(/C=C/[C@H](O)[C@@H](CO)NC)cc1", "UNIT_NAME": "%", "residual activity": 106}

[a] FC(F)(F)c1ccc(-c2ccc(Oc3cncc4sc(-c5nn[nH]n5)cc34)cc2)cc1
[b] O=C(NOCC(O)CO)c1ccc(F)c(F)c1Nc1ccc(I)cc1Cl (stereo not given)
// compare measured residual activity between a and b ; output the lower one Record your answer as the label of the chosen record. a
(a: 22%, b: 102%)

----------
Target: UniProt:O43781
Sequence (O43781 whole entry, looked up): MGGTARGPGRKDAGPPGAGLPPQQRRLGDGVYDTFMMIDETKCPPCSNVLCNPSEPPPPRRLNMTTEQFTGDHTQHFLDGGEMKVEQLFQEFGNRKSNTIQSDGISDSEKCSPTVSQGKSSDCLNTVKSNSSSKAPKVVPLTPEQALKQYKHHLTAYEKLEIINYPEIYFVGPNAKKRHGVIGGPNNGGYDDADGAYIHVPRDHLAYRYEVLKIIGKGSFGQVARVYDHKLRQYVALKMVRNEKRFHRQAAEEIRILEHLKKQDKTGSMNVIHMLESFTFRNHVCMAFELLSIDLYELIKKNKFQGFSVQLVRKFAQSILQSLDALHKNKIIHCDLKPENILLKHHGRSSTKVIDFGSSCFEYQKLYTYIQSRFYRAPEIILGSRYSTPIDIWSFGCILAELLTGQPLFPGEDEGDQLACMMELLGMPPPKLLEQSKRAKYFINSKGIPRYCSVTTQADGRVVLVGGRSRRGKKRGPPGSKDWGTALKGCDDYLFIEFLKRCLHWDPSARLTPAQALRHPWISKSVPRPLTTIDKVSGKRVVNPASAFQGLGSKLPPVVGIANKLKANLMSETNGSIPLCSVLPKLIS
Test: radiometric filter-binding kinase assay
Settings: compound 1.0 µM
READOUT_LABEL: residual activity (%)

{"SMILES_DATA": "O=C(NOC[C@H](O)CO)c1ccc(F)c(F)c1Nc1ccc(I)cc1Cl", "residual activity, %": 85}
{"SMILES_DATA": "COc1cc(C(=O)N2CCOCC2)c(F)cc1Nc1ncc(C(F)(F)F)c(NC2CC2)n1", "residual activity, %": 88}
{"SMILES_DATA": "O=C1NC(=S)N[C@@H]1Cc1c[nH]c2ccccc12", "residual activity, %": 78}
{"SMILES_DATA": "Cn1c(=O)c2c(ncn2C)n(C)c1=O", "residual activity, %": 98}
{"SMILES_DATA": "CCCCCc1ccc(/C=C/[C@H](O)[C@@H](CO)NC)cc1", "residual activity, %": 98}
{"SMILES_DATA": "CN1C(=O)[C@@H](Cc2c[nH]c3ccccc23)NC1=S", "residual activity, %": 90}
{"SMILES_DATA": "O=C(N[C@@H](COc1ccc2[nH]c(=O)[nH]c2c1)c1ccccc1)c1cccn(Cc2ccc(F)c(F)c2)c1=O", "residual activity, %": 109}

----------
Biological target: MAPK12 (human) (UniProt P53778)
Sequence (P53778 whole entry, looked up): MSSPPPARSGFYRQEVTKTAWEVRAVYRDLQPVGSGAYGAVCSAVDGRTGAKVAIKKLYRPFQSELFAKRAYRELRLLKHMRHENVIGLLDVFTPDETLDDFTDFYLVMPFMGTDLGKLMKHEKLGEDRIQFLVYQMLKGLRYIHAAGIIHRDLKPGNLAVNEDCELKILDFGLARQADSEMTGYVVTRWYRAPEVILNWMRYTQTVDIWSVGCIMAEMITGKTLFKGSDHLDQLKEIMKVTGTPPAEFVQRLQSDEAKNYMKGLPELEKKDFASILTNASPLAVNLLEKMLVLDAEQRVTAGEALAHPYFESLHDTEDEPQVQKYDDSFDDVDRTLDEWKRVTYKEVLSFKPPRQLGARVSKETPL
Test: radiometric filter-binding kinase assay
Settings: compound 1.0 µM
READOUT_LABEL: residual activity (%)

{"MOLECULE": "O=C(NOCC(O)CO)c1ccc(F)c(F)c1Nc1ccc(I)cc1Cl (stereo not drawn)", "residual activity, %": 80}
{"MOLECULE": "C[C@H]1CCCC(=O)CCC/C=C/c2cc(O)cc(O)c2C(=O)O1", "residual activity, %": 97}
{"MOLECULE": "O=C1NC(=S)N[C@@H]1Cc1c[nH]c2ccccc12", "residual activity, %": 103}
